- Assay Text: clinical
- Reported Conditions: human, whole blood, oral, 22 mg/m2, t1/2, median (range), 22 mg/m^2, n = 3
Parameter: half-life (h)
// return numeric value only (unit: h, not printed)

Quick one: half-life of CO[C@H]1C[C@@H]2CC[C@@H](C)[C@@](O)(O2)C(=O)C(=O)N2CCCC[C@H]2C(=O)O[C@H]([C@H](C)C[C@@H]2CC[C@@H](OP(C)(C)=O)[C@H](OC)C2)CC(=O)[C@H](C)/C=C(\C)[C@@H](O)[C@@H](OC)C(=O)[C@H](C)C[C@H](C)/C=C/C=C/C=C/1C ?
24.5

###

- Assay Text: clinical
- Reported Conditions: human, whole blood, oral, 28 mg/m2, t1/2, geometric mean (CV%), 28 mg/m^2, n = 3
Parameter: half-life (h)
Answer in h, number only, no unit symbol.

Which half-life value belongs to CO[C@H]1C[C@@H]2CC[C@@H](C)[C@@](O)(O2)C(=O)C(=O)N2CCCC[C@H]2C(=O)O[C@H]([C@H](C)C[C@@H]2CC[C@@H](OP(C)(C)=O)[C@H](OC)C2)CC(=O)[C@H](C)/C=C(\C)[C@@H](O)[C@@H](OC)C(=O)[C@H](C)C[C@H](C)/C=C/C=C/C=C/1C ?
27.2

###

- Assay Text: clinical
- Reported Conditions: human, whole blood, oral, 22 mg/m^2, C4h, arithmetic mean (SD), day 5, 22 mg/m^2, n = 4
- Protocol: Whole blood samples (2 mL each) for pharmacokinetic analyses were collected at the following time points: <5 minutes before dosing on days 1 through 5 and at 0.5, 1, 2, 4, 8, 24, and 72 hours after drug administration on day 5 of the first week of the first treatment cycle. Blood concentrations of ridaforolimus were determined using a validated liquid chromatography/tandem mass spectrometry assay as in previous ridaforolimus studies (Charles River Laboratories, Shrewsbury, MA). […]
Parameter: concentration at 4 h

Please report the recorded concentration at 4 h for CO[C@H]1C[C@@H]2CC[C@@H](C)[C@@](O)(O2)C(=O)C(=O)N2CCCC[C@H]2C(=O)O[C@H]([C@H](C)C[C@@H]2CC[C@@H](OP(C)(C)=O)[C@H](OC)C2)CC(=O)[C@H](C)/C=C(\C)[C@@H](O)[C@@H](OC)C(=O)[C@H](C)C[C@H](C)/C=C/C=C/C=C/1C .
139 ng/mL

###

- Assay Text: clinical
- Reported Conditions: human, whole blood, oral, 22 mg/m2, t1/2, geometric mean (CV%), 22 mg/m^2, n = 3
Parameter: half-life (h)
Note: unit h is implicit; provide only the numeric part.

What value of half-life has been reported for the following molecule? CO[C@H]1C[C@@H]2CC[C@@H](C)[C@@](O)(O2)C(=O)C(=O)N2CCCC[C@H]2C(=O)O[C@H]([C@H](C)C[C@@H]2CC[C@@H](OP(C)(C)=O)[C@H](OC)C2)CC(=O)[C@H](C)/C=C(\C)[C@@H](O)[C@@H](OC)C(=O)[C@H](C)C[C@H](C)/C=C/C=C/C=C/1C
25.5

###

- Assay Text: clinical
- Reported Conditions: human, whole blood, oral, 33 mg/m2
Parameter: AUC(0-t) (ng·h/mL)
Give your result in ng·h/mL as a bare value.

For the compound CO[C@H]1C[C@@H]2CC[C@@H](C)[C@@](O)(O2)C(=O)C(=O)N2CCCC[C@H]2C(=O)O[C@H]([C@H](C)C[C@@H]2CC[C@@H](OP(C)(C)=O)[C@H](OC)C2)CC(=O)[C@H](C)/C=C(\C)[C@@H](O)[C@@H](OC)C(=O)[C@H](C)C[C@H](C)/C=C/C=C/C=C/1C , what AUC(0-t) is on record?
2280

###

- Assay Text: clinical
- Reported Conditions: human, whole blood, oral, 28 mg/m^2, C8h, arithmetic mean (SD), day 5, 28 mg/m^2, n = 3
Parameter: concentration at 8 h (ng/mL)
Your answer should be a plain number; it is taken to be in ng/mL.

Looking for the measured concentration at 8 h of CO[C@H]1C[C@@H]2CC[C@@H](C)[C@@](O)(O2)C(=O)C(=O)N2CCCC[C@H]2C(=O)O[C@H]([C@H](C)C[C@@H]2CC[C@@H](OP(C)(C)=O)[C@H](OC)C2)CC(=O)[C@H](C)/C=C(\C)[C@@H](O)[C@@H](OC)C(=O)[C@H](C)C[C@H](C)/C=C/C=C/C=C/1C , can you help?
119

###

- Assay Text: clinical
- Reported Conditions: human, whole blood, oral, 22 mg/m^2, C8h, geometric mean (CV%), day 5, 22 mg/m^2, n = 4
Parameter: concentration at 8 h (ng/mL)
Value expressed in ng/mL; do not type the unit.

Which concentration at 8 h value belongs to CO[C@H]1C[C@@H]2CC[C@@H](C)[C@@](O)(O2)C(=O)C(=O)N2CCCC[C@H]2C(=O)O[C@H]([C@H](C)C[C@@H]2CC[C@@H](OP(C)(C)=O)[C@H](OC)C2)CC(=O)[C@H](C)/C=C(\C)[C@@H](O)[C@@H](OC)C(=O)[C@H](C)C[C@H](C)/C=C/C=C/C=C/1C ?
71

###

- Assay Text: clinical
- Reported Conditions: human, whole blood, oral, 28 mg/m^2, C8h, geometric mean (CV%), day 5, 28 mg/m^2, n = 3
Parameter: concentration at 8 h (ng/mL)
Give the value in ng/mL but do not write ng/mL after it.

Tell me the measured concentration at 8 h of CO[C@H]1C[C@@H]2CC[C@@H](C)[C@@](O)(O2)C(=O)C(=O)N2CCCC[C@H]2C(=O)O[C@H]([C@H](C)C[C@@H]2CC[C@@H](OP(C)(C)=O)[C@H](OC)C2)CC(=O)[C@H](C)/C=C(\C)[C@@H](O)[C@@H](OC)C(=O)[C@H](C)C[C@H](C)/C=C/C=C/C=C/1C , please.
116

###

- Assay Text: clinical
- Reported Conditions: human, whole blood, oral, 22 mg/m2
Parameter: AUC(0-t) (ng·h/mL)
Numbers only; they are read as ng·h/mL.

AUC(0-t) lookup needed for CO[C@H]1C[C@@H]2CC[C@@H](C)[C@@](O)(O2)C(=O)C(=O)N2CCCC[C@H]2C(=O)O[C@H]([C@H](C)C[C@@H]2CC[C@@H](OP(C)(C)=O)[C@H](OC)C2)CC(=O)[C@H](C)/C=C(\C)[C@@H](O)[C@@H](OC)C(=O)[C@H](C)C[C@H](C)/C=C/C=C/C=C/1C , thanks.
1340

###

- Assay Text: clinical
- Reported Conditions: human, whole blood, oral, 28 mg/m2, t1/2, median (range), 28 mg/m^2, n = 3
Parameter: half-life (h)
The response must be a number in h with no trailing unit.

Which half-life is listed for CO[C@H]1C[C@@H]2CC[C@@H](C)[C@@](O)(O2)C(=O)C(=O)N2CCCC[C@H]2C(=O)O[C@H]([C@H](C)C[C@@H]2CC[C@@H](OP(C)(C)=O)[C@H](OC)C2)CC(=O)[C@H](C)/C=C(\C)[C@@H](O)[C@@H](OC)C(=O)[C@H](C)C[C@H](C)/C=C/C=C/C=C/1C [ridaforolimus] ?
26.5

###

- Assay Text: clinical
- Reported Conditions: human, whole blood, oral, 22 mg/m2, t1/2, arithmetic mean (SD), 22 mg/m^2, n = 3
Parameter: half-life (h)
Give just the number in h; leave the unit off.

Sample CO[C@H]1C[C@@H]2CC[C@@H](C)[C@@](O)(O2)C(=O)C(=O)N2CCCC[C@H]2C(=O)O[C@H]([C@H](C)C[C@@H]2CC[C@@H](OP(C)(C)=O)[C@H](OC)C2)CC(=O)[C@H](C)/C=C(\C)[C@@H](O)[C@@H](OC)C(=O)[C@H](C)C[C@H](C)/C=C/C=C/C=C/1C [ridaforolimus] — what was its half-life?
25.5

###

- Assay Text: clinical
- Reported Conditions: human, whole blood, oral, 22 mg/m^2, C8h, arithmetic mean (SD), day 5, 22 mg/m^2, n = 4
- Experimental: Whole blood samples (2 mL each) for pharmacokinetic analyses were collected at the following time points: <5 minutes before dosing on days 1 through 5 and at 0.5, 1, 2, 4, 8, 24, and 72 hours after drug administration on day 5 of the first week of the first treatment cycle. Blood concentrations of ridaforolimus were determined using a validated liquid chromatography/tandem mass spectrometry assay as in previous ridaforolimus studies (Charles River Laboratories, Shrewsbury, MA). […]
Parameter: concentration at 8 h (ng/mL)
Numeric only. Scale: ng/mL

Which concentration at 8 h is reported for this molecule? CO[C@H]1C[C@@H]2CC[C@@H](C)[C@@](O)(O2)C(=O)C(=O)N2CCCC[C@H]2C(=O)O[C@H]([C@H](C)C[C@@H]2CC[C@@H](OP(C)(C)=O)[C@H](OC)C2)CC(=O)[C@H](C)/C=C(\C)[C@@H](O)[C@@H](OC)C(=O)[C@H](C)C[C@H](C)/C=C/C=C/C=C/1C
74
